Target: human urotensin II receptor (Homo sapiens, UniProt Q9UKP6)
Construct: expressed in transfected cells; host or cells: NIH3T3 cells
Assay: Receptor Selection and Amplification (R-SAT) functional assay, NIH3T3 cells transfected with human urotensin II receptor and β-galactosidase marker
Type: cell-based
Details: Table 3, negative of the log EC50 in molarity, average ± standard deviation (or range) of determinations, eight doses in triplicate
Where a name gives a salt, the structure may show the parent alone.
Endpoint Label: EC50

Molecule | EC50
CN(C)CCC(NC(=O)Nc1ccc(Oc2ccccc2)cc1)c1ccc(Cl)cc1 (stereo not drawn) [8d] | 63.1 to 145 nM

query: Entry CN(C)CCC(OC(=O)c1cc2ccccc2n1C)c1ccc(Cl)cc1 (stereo not drawn) [4n, HCl] : reported EC50 = ?
result: 1910 nM

query: Entry CN(C)CCC(OC(=O)Nc1ccc(C(C)(C)C)cc1)c1ccc(Cl)cc1 (stereo not drawn) [7c] : reported EC50 = ?
result: 1780 nM

query: Entry CN(C)CCC(OC(=O)Nc1ccc(C(F)(F)F)cc1)c1ccc(Cl)cc1 (stereo not drawn) [7i] : reported EC50 = ?
result: 178 to 309 nM

query: Entry CN(C)CCC(NC(=O)c1ccc(C(F)(F)F)cc1)c1ccc(Cl)cc1 (stereo not drawn) [5q, oxalate] : reported EC50 = ?
result: 66.1 to 102 nM

###

Target: human urotensin II receptor (Homo sapiens, UniProt Q9UKP6)
Construct: expressed in transfected cells; host or cells: NIH3T3 cells
Assay: Receptor Selection and Amplification (R-SAT) functional assay, NIH3T3 cells transfected with human urotensin II receptor and β-galactosidase marker
Assay type: cell-based
Details: NIH3T3, Table 4, % efficacy normalized to UII at 100%
Description: The functional receptor assay, Receptor Selection and Amplification Technology (R-SAT™), was used (with minor modifications from the procedure described previously (Brann, M. R. U.S. Pat. No. 5,707,798, 1998; Chem. Abstr. 1998, 128, 111548) to screen compounds for efficacy at the UII receptor. The RSAT assay was conducted as described herein. […] Results were determined in R-SAT assays and are expressed as pEC50, the negative of the log EC50 in molarity. […]
Structures can show the parent of a compound that is named as a salt.
Endpoint Label: Emax (%)

The following compounds have reported results that may help.
Compound | System Name | Emax, %
Cc1ccc(C(CCN(C)C)NC(=O)C=Cc2ccccc2)cc1 (centres unmarked) | human urotensin II receptor (Homo sapiens, UniProt Q9UKP6) | 97
CN(C)CCC(NC(=O)CCc1ccccc1)c1ccc2ccccc2c1 (centres unmarked) [C4, HCl] | human urotensin II receptor (Homo sapiens, UniProt Q9UKP6) | 107
CN(C)CCC(NC(=O)Cc1ccc(C(F)(F)F)cc1)c1ccc2ccccc2c1 (centres unmarked) [C2, HCl] | human urotensin II receptor (Homo sapiens, UniProt Q9UKP6) | 40
CN(C)CCC(NC(=O)Cc1ccccc1)c1ccc2ccccc2c1 (centres unmarked) [C1, HCl] | human urotensin II receptor (Homo sapiens, UniProt Q9UKP6) | 121
CN(C)CCC(NC(=O)/C=C/c1ccccc1)c1ccc2ccccc2c1 (centres unmarked) [C7, HCl] | human urotensin II receptor (Homo sapiens, UniProt Q9UKP6) | 116
COc1ccc(C=CC(=O)NC(CCN(C)C)c2ccc3ccccc3c2)cc1 (centres unmarked) [C9, HCl] | human urotensin II receptor (Homo sapiens, UniProt Q9UKP6) | 106

[I] CN(C)CCC(NC(=O)CCc1ccccc1)c1ccc(Cl)cc1 (centres unmarked) [A4, HCl]
[II] COc1ccc(CC(=O)NC(CCN(C)C)c2ccc(Cl)cc2)cc1 (centres unmarked) [A3, HCl]
query: Which item exceeds the other in Emax, I or II ? Kindly give the label for the entry you pick.
result: I

###

Molecular target: human urotensin II receptor (Homo sapiens, UniProt Q9UKP6)
Construct: expressed in transfected cells; host or cells: NIH3T3 cells
Assay: Receptor Selection and Amplification (R-SAT) functional assay, NIH3T3 cells transfected with human urotensin II receptor and β-galactosidase marker
Assay type: cell-based
Details: Table 3, negative of the log EC50 in molarity, average ± standard deviation (or range) of determinations, eight doses in triplicate
Structures can show the parent of a compound that is named as a salt.
Endpoint Label: EC50 (nM)

The following compounds have reported results that may help.
Compound | Endpoint Label | Recorded Measurement
CO[C@@H](C(=O)NC(CCN(C)C)c1ccc(Cl)cc1)c1ccccc1 (single isomer, unassigned; (-)) [(−) 5s, oxalate] | EC50 | 871
CN(C)CCC(OC(=O)Nc1ccc(Oc2ccccc2)cc1)c1ccc(Cl)cc1 (centres unmarked) | EC50 | 126

[1] CN(C)CCC(NC(=O)Nc1ccc(C(C)(C)C)cc1)c1ccc(Cl)cc1 (centres unmarked)
[2] CN(C)CCC(OC(=O)c1cn(C)c2ccccc12)c1ccc(Cl)cc1 (centres unmarked) [4o, HCl]
query: Please indicate which has the smaller reported EC50: 1 , or 2 . Kindly give the label for the entry you pick.
result: 1
(1: 186 nM, 2: 1620 nM)

###

Biological target: human urotensin II receptor (Homo sapiens, UniProt Q9UKP6)
Construct: expressed in transfected cells; host or cells: NIH3T3 cells
Test: Receptor Selection and Amplification (R-SAT) functional assay, NIH3T3 cells transfected with human urotensin II receptor and β-galactosidase marker
Type: cell-based
Settings: NIH3T3, Table 4, % efficacy normalized to UII at 100%
Procedure: The functional receptor assay, Receptor Selection and Amplification Technology (R-SAT™), was used (with minor modifications from the procedure described previously (Brann, M. R. U.S. Pat. No. 5,707,798, 1998; Chem. Abstr. 1998, 128, 111548) to screen compounds for efficacy at the UII receptor. The RSAT assay was conducted as described herein. […] Results were determined in R-SAT assays and are expressed as pEC50, the negative of the log EC50 in molarity. […]
Counter-ions that a name gives are not always drawn.
Endpoint Label: Emax (%)

The following molecules have reported results that may help.
Molecule | Emax (%)
CC(C(=O)NC(CCN(C)C)c1ccc2ccccc2c1)c1ccc(C(F)(F)F)cc1 (centres unmarked) [C5, HCl] | 75
Cc1ccc(C(CCN(C)C)NC(=O)CCc2ccccc2)cc1 (centres unmarked) [B4, HCl] | 73

[A] Cc1ccc(C(CCN(C)C)NC(=O)C=Cc2ccc(C(F)(F)F)cc2)cc1 (centres unmarked) [B8, HCl]
[B] Cc1ccc(C(CCN(C)C)NC(=O)Cc2ccc(C(F)(F)F)cc2)cc1 (centres unmarked) [B2, HCl]
query: Which item exceeds the other in Emax, A or B ? Kindly give the label for the entry you pick.
result: A

[1] CN(C)CCC(NC(=O)C=Cc1ccc(C(F)(F)F)cc1)c1ccc2ccccc2c1 (centres unmarked) [C8, HCl]
[2] COc1ccc(C=CC(=O)NC(CCN(C)C)c2ccc(C)cc2)cc1 (centres unmarked) [B9, HCl]
[3] CN(C)CCC(NC(=O)Cc1ccc(C(F)(F)F)cc1)c1ccc(Cl)cc1 (centres unmarked) [A2, HCl]
query: Form: Sort by [Emax] Order [ ascending ] Field: ranking. Enter the labels in the order requested.
result: 3, 2, 1
(3: 53%, 2: 79%, 1: 117%)

[a] Cc1ccc(C(CCN(C)C)NC(=O)C#Cc2ccccc2)cc1 (centres unmarked)
[b] Cc1ccc(C(CCN(C)C)NC(=O)Cc2ccccc2)cc1 (centres unmarked) [B1, HCl]
query: Please indicate which has the smaller reported Emax: a , or b . Kindly give the label for the entry you pick.
result: b

###

Target: human urotensin II receptor (Homo sapiens)
Construct: expressed in transfected cells; host or cells: NIH3T3 cells
Sequence (Q9UKP6 1-389): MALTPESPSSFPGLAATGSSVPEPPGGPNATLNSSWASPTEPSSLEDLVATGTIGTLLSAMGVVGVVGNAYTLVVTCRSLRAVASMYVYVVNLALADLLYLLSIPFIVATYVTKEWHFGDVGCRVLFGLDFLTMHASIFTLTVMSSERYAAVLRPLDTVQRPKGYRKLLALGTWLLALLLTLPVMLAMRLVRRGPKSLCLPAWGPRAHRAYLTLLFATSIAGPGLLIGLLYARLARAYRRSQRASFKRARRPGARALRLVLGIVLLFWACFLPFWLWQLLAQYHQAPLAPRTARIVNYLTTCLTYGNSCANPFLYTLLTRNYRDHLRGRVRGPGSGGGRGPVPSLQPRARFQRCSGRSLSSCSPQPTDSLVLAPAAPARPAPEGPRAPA
Test: Receptor Selection and Amplification (R-SAT) functional assay, NIH3T3 cells transfected with human urotensin II receptor and β-galactosidase marker
Format: cell-based
Details: Table 4, negative of the log EC50 in molarity, average ± standard deviation of 2-5 determinations, eight doses in triplicate
Structures can show the parent of a compound that is named as a salt.
Endpoint Label: EC50 (nM)

Compound | Units Label | EC50
CN(C)CCC(NC(=O)CCc1ccc(C(F)(F)F)cc1)c1ccc(Cl)cc1 (stereo not drawn) [A5, HCl] | nM | 1120

[A] COc1ccc(CC(=O)NC(CCN(C)C)c2ccc(Cl)cc2)cc1 (stereo not drawn) [A3, HCl]
[B] CN(C)CCC(NC(=O)C=Cc1ccc(C(F)(F)F)cc1)c1ccc(Cl)cc1 (stereo not drawn) [A8, HCl]
query: Please indicate which has the smaller reported EC50: A , or B . Kindly give the label for the entry you pick.
result: B
